ASSAY NAME: chemical genetic growth profiling, strain panel (AID 1159580);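 further: tested at 20 µM; growth read once vehicle control cultures reached saturation at 30 °C; 1 = growth at the plate median or of vehicle wells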
EXPERIMENTAL SETUP: S. cerevisiae deletion strains, growth OD, locus YLR039C, strain RIC1, hits give low values
The campaign covered roughly 5,500 compounds. About 2,000 (36%) were called active. Another 18% or so got no clear call; they are omitted. Some of the results follow.
Kindly state normalized growth for each of the entries shown.

Sample O=c1[nH]c2cc(Cl)c(Cl)cc2[nH]c1=O ; normalized growth observed: 1.04 (inactive)

Memo: CC(=O)O[C@H]1C[C@@H](O)C(C)(C)C2C[C@@H](OC(C)=O)[C@]3(C)C(CC[C@@]4(C)[C@H](c5ccoc5)OC(=O)C5OC543)[C@]21C (some centres undefined) , reported normalized growth: 1.04 (inactive)

Query Cc1cc(=O)c2c(o1)-c1c(cc(O)c(O)c1C(=O)O)OC2 yields normalized growth of 0.973 (inactive)

Recorded normalized growth (compound CN1CCOC(c2ccccc2)c2ccccc2C1 (centres undefined) ): 1.01 (inactive)

Briefly, normalized growth measured for CC(=O)O[C@H]1C[C@@]2(C)[C@H](c3ccoc3)OC(=O)[C@H]3O[C@]32[C@@]2(C)C1[C@]1(C)C(C[C@H]2OC(C)=O)C(C)(C)[C@H](OC(C)=O)C[C@@H]1OC(C)=O (some centres undefined) : 0.959 (inactive)

What the record says about CC(=O)O[C@@H]1CC2C(C)(C)C(=O)CC[C@]2(C)C2CC[C@@]3(C)[C@H](c4ccoc4)OC(=O)C4OC43[C@@]21C (some centres undefined) : normalized growth is 1.03 (inactive)

normalized growth in this record for Cc1cc(=O)c2c(O)c3c(cc2o1)OCC(C)CC3 (centres undefined) : 0.673 (active)

Given item Cc1cc(C(F)(F)F)c(C#N)c(=O)[nH]1 , the value recorded as its normalized growth is 1.04 (inactive)

The recorded normalized growth for entry NCC(=O)CCC(=O)O equals 1.03 (inactive)

----------
ASSAY NAME: chemical genetic growth profiling, strain panel (AID 1159580);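 further: tested at 20 µM; growth read once vehicle control cultures reached saturation at 30 °C; 1 = growth at the plate median or of vehicle wells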
EXPERIMENTAL SETUP: S. cerevisiae deletion strains, growth OD, locus YDL074C, strain BRE1, hits give low values
Hit rate of the full screen: of about 5,500 compounds, about 2,000 (36%) were called active. Inconclusive results (about 18%) are left out. Some of the results follow.
API: label(entry) gives MET if the entry's normalized growth is strictly smaller than 0.9; on equality or larger values it gives NOT MET.

Lab note: confirm whether the reported normalized growth for this compound is below 0.9, equality not counting. compound: COc1cc([C@@H]2c3cc4c(cc3[C@H](O)[C@H]3COC(=O)[C@@H]23)OCO4)cc(OC)c1OC
NOT MET

Input CC(C)=CCc1c2c(c(O)c3c(=O)c(O)c(-c4ccccc4)oc13)C=CC(C)(C)O2 ; condition: normalized growth strictly below 0.9. Does it hold?
MET

A record lists CC(=O)Nc1cccc(O)c1 . Is its normalized growth below 0.9?
NOT MET

Report whether reported normalized growth is lower than 0.9 (strictly) for Nc1ccc(C(=O)O)c(O)c1
NOT MET

Would you kindly verify if normalized growth of CC1=CCc2c(cc3oc(C)cc(=O)c3c2O)OC1 is strictly less than 0.9?
MET

Please determine if CC(=O)Nc1ccc(O)cc1 is below 0.9 in terms of normalized growth.
NOT MET

# strict comparison: is reported normalized growth < 0.9? input = C=C1C2CC[C@@]3(C)[C@H](c4ccoc4)OC(=O)C[C@]13O[C@H]1CC(=O)C(C)(C)[C@H](C(O)C(=O)OC)[C@@]21C (stereo not given in full)
NOT MET

Is normalized growth of Nc1ccc(C(=O)Oc2ccccc2)c(O)c1 strictly below 0.9?
MET

Take the compound CC(=O)Oc1cc(-c2coc3cc(OC(C)=O)c(OC(C)=O)c(OC(C)=O)c3c2=O)cc(OC(C)=O)c1OC(C)=O and say whether its normalized growth is less than 0.9.
MET

Record CC(C)(Oc1ccc(Cl)cc1)C(=O)O : is its normalized growth strictly below 0.9?
NOT MET

In plain terms, does CN1CCc2c(c3ccccc3n2Cc2ccccc2)C1 come in under 0.9 for normalized growth?
MET

Please state whether normalized growth is below 0.9 for O=C(O)c1nc2cc(Cl)c(Cl)cc2[nH]c1=O
NOT MET

# strict comparison: is reported normalized growth < 0.9? input = COc1cccc(-c2cc(=O)c3ccc(OC)cc3o2)c1
MET

Problem: For the compound CC1=NCCc2c1[nH]c1cc(O)ccc21 , is normalized growth under 0.9?
NOT MET

# TODO verify normalized growth < 0.9 strictly for this compound: Cc1cc(=O)c2c(o1)-c1c(cc(O)c(O)c1C(=O)O)OC2
NOT MET

Strictly below 0.9: is that where normalized growth of Cn1nnnc1SCC1=C(C(=O)O)N2C(=O)C(NC(=O)C(O)c3ccccc3)C2SC1 (stereo not given) sits?
NOT MET

Consider the compound COc1c(O)cc2c(-c3ccccc3)cc(=O)oc2c1OC . Is its normalized growth strictly less than 0.9?
NOT MET

For CC(=O)Nc1ccc(OC(=O)c2ccccc2O)cc1 , is the recorded normalized growth below the cut-off of 0.9?
MET

Please check: normalized growth for CCCN1C[C@H](CSC)C[C@@H]2c3cccc4[nH]cc(c34)C[C@H]21 , strictly under 0.9 or not?
NOT MET

Is 0.9 strictly greater than the compound's reported normalized growth? compound: CN(N=O)C(=O)N[C@@H]1[C@@H](O)[C@H](O)[C@@H](CO)O[C@@H]1O
NOT MET

Strictly below 0.9: is that where normalized growth of CN(C)CCC=C1c2ccccc2CCc2ccccc21 sits?
NOT MET

Hello, I'm reviewing records and need to know if normalized growth of C=CCc1ccccc1OCC(O)CNC(C)C (stereo not given) is below 0.9. Could you check?
NOT MET

Given the entry COc1cc(O)c2c(=O)c(-c3ccc(O)cc3)coc2c1 , would its reported normalized growth be below 0.9?
MET

Decide: normalized growth of CCCCCCc1ccc(O)cc1O strictly below 0.9?
MET

Field: below-cutoff. Rule: recorded normalized growth strictly less than 0.9. Subject: CCC/C=C/C=C/[C@@H]1C[C@@H](O)[C@@H](O)C(=O)[C@H]1C=O
NOT MET

Please determine if Cc1cc(=O)c2c(O)c3c(cc2o1)OC(C)(C)CC3 is below 0.9 in terms of normalized growth.
NOT MET

Please check: normalized growth for C=CCCCCCCCCCCCC(O)CC(O)CO (stereo not given) , strictly under 0.9 or not?
MET

Take the compound COc1cc2c3cc1Oc1cc(ccc1O)C[C@@H]1c4c(cc(OC)c(O)c4Oc4ccc(cc4)C[C@@H]3N(C)CC2)CC[N+]1(C)C and say whether its normalized growth is less than 0.9.
NOT MET

Would you kindly verify if normalized growth of COc1c(O)cccc1O is strictly less than 0.9?
NOT MET

Just wondering, is normalized growth of NCCc1ccc(O)c(O)c1 below 0.9?
NOT MET

Is the reported normalized growth for CC1(C)O[C@@H]2CC3C4C[C@H](F)C5=CC(=O)C=CC5(C)C4C(O)CC3(C)[C@]2(C(=O)CO)O1 (stereo not given in full) strictly below 0.9?
NOT MET

Hi there! Is normalized growth for COCCOC(=O)C1=C(C)NC(C)=C(C(=O)OC(C)C)C1c1cccc([N+](=O)[O-])c1 (stereo not given) below 0.9, do you know?
NOT MET

Does the reported normalized growth of CCCCCCCCCc1ccc(O)cc1 stay below 0.9?
MET

Lab note: confirm whether the reported normalized growth for this compound is below 0.9, equality not counting. compound: CN1CCOC(c2ccccc2)c2ccccc2C1 (stereo not given)
NOT MET

Please check: normalized growth for Cc1cc(=O)c2c(O)c3c(cc2o1)OCC(C)CC3 (stereo not given) , strictly under 0.9 or not?
MET

Consider the compound NCCc1ccc(O)cc1 . Is its normalized growth strictly less than 0.9?
NOT MET

Could you please tell me whether normalized growth recorded for O=c1c(-c2ccc(O)cc2)coc2cc(O)cc(O)c12 is less than 0.9?
NOT MET

In the record for COc1cc([C@@H]2c3cc4c(cc3C(O[C@@H]3O[C@@H]5CO[C@@H](c6cccs6)OC5[C@H](O)[C@H]3O)C3COC(=O)[C@@H]32)OCO4)cc(OC)c1O (stereo not given in full) , is normalized growth less than 0.9?
NOT MET

Below 0.9 on normalized growth? Entry CC(N)Cc1ccc(O)cc1 (stereo not given)
NOT MET

Determine if CCCCC1C(=O)N(c2ccccc2)N(c2ccccc2)C1=O shows normalized growth strictly lower than 0.9.
NOT MET

In the record for Nc1nc(N)c2nc(-c3ccccc3)c(N)nc2n1 , is normalized growth less than 0.9?
NOT MET

Please indicate whether the reported normalized growth of CC1(C)O[C@@H]2CC3C4CCC5=CC(=O)C=C[C@]5(C)[C@@]4(F)[C@@H](O)C[C@]3(C)[C@]2(C(=O)CO)O1 (stereo not given in full) is strictly below 0.9.
NOT MET
